assaySystem: TBK1 (Homo sapiens)
Construct: All protein kinases were of human origin and encoded full length proteins, unless indicated otherwise; His6; made in house; host or cells: insect Sf21 cells
testProtocol: TBK1 protein kinase assay ([γ-33P]ATP, P81 filterplates)
Type: biochemical
studyConditions: read-out: TBK1 IC50
Provide the recorded pIC50 for the entries that follow.
pIC50 (log units): -log10 of the concentration in mol/L.

Q: // lookup pIC50 for O=C(NCCCNc1nc(Nc2cccc(F)c2)ncc1C1CC1)C1CCC1
A: 8.40

Q: // lookup pIC50 for O=C(NCCCNc1nc(Nc2cccc(F)c2)ncc1Br)C1CCC1 [Compound A, reference compound]
A: 8.70

----------
Provide the recorded pIC50 for the entries that follow.
assaySystem: TBK1 (Homo sapiens, UniProt Q9UHD2)
Construct: All protein kinases were of human origin and encoded full length proteins, unless indicated otherwise; His6; made in house; host or cells: insect Sf21 cells
Sequence (Q9UHD2 whole entry): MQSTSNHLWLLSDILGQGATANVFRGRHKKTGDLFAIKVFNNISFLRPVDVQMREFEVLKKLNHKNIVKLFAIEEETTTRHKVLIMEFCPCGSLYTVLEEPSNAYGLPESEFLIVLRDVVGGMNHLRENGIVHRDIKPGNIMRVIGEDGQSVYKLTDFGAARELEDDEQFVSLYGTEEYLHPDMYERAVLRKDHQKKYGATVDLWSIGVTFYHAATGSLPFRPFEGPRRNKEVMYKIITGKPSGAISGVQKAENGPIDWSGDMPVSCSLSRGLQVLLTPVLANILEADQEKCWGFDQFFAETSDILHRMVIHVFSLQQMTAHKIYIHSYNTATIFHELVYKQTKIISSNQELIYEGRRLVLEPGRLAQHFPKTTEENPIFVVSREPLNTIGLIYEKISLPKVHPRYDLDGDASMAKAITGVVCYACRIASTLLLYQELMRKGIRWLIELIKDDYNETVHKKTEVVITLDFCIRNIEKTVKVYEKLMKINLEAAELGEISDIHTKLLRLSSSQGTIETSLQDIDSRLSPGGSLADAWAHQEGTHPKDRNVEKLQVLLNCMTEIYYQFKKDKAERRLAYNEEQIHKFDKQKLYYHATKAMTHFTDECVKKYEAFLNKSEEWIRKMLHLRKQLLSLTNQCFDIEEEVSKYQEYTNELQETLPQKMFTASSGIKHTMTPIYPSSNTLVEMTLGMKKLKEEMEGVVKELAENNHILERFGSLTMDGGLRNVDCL
testProtocol: TBK1 protein kinase assay ([γ-33P]ATP, P81 filterplates)
Format: biochemical
studyConditions: 50 μM ATP; read-out: Potency (TBK1 IC50 potency score)
pIC50: −log10 of the molar value. Structures can show the parent of a compound that is named as a salt.

Q: // lookup pIC50 for O=C(NCCCNc1nc(Nc2ccc(N3CCOCC3)nc2)ncc1C1CC1)c1cccs1 [Example 54]
A: > 7.00

Q: // lookup pIC50 for CN(CCN1CCOCC1)C(=O)c1cccc(Nc2ncc(C3CC3)c(NCCCNC(=O)C3CCC3)n2)c1 [Example 80]
A: > 7.00

Q: // lookup pIC50 for O=C(NCCCNc1nc(Nc2ccc(S(=O)(=O)Nc3ncccn3)cc2)ncc1C1CC1)C1CCC1 [Example 163]
A: > 7.00

Q: // lookup pIC50 for O=C(NCCCNc1nc(Nc2ccc(Cl)nc2)ncc1C1CC1)C1CCC1 [Example 99]
A: > 7.00

Q: // lookup pIC50 for CC1(C)CCN(CCCNc2nc(Nc3cccc(F)c3)ncc2C2CC2)C1=O [Example 113]
A: 6.00 to 7.00

Q: // lookup pIC50 for O=C(NCCCNc1nc(Nc2cccc(F)c2)ncc1C1CC1)C1CCCO1 (centres unmarked) [Example 15]
A: 6.00 to 7.00

Q: // lookup pIC50 for O=C(NCCCNc1nc(Nc2cccc(CN3CCCCC3)c2)ncc1C1CC1)C1CCC1 [Example 134]
A: > 7.00

Q: // lookup pIC50 for Cn1cnc(C(=O)NCCCNc2nc(Nc3cccc(F)c3)ncc2C2CC2)c1 [Example 10, trifluoroacetic acid salt]
A: 5.00 to 6.00

Q: // lookup pIC50 for O=C(NCCCNc1nc(Nc2cccc(F)c2)ncc1C1CC1)c1nccs1 [Example 20]
A: > 7.00

Q: // lookup pIC50 for O=C(NCCCNc1nc(Nc2ccc(N3CCCC3)nc2)ncc1C1CC1)C1CCC1 [Example 151]
A: > 7.00

Q: // lookup pIC50 for CN(CCN1CCOCC1)c1ccc(Nc2ncc(C3CC3)c(NCCCNC(=O)C3CCC3)n2)cn1 [Example 102]
A: > 7.00

Q: // lookup pIC50 for CN1CCC(CNC(=O)c2cccc(Nc3ncc(C4CC4)c(NCCCNC(=O)C4CCC4)n3)c2)CC1 [Example 78]
A: > 7.00

Q: // lookup pIC50 for Cc1ccc(C(=O)NCCCNc2nc(Nc3cccc(F)c3)ncc2C2CC2)s1 [Example 12]
A: 6.00 to 7.00

Q: // lookup pIC50 for O=C(NCCCNc1nc(Nc2cccc(F)c2)ncc1C1CC1)C1CCOC1 (centres unmarked) [Example 14]
A: > 7.00

Q: // lookup pIC50 for O=C(NCCCNc1nc(Nc2cccc(F)c2)ncc1C1CC1)c1cccs1 [Example 26]
A: 6.00 to 7.00

Q: // lookup pIC50 for COCCNC(=O)c1cccc(Nc2ncc(C3CC3)c(NCCCNC(=O)C3CCC3)n2)c1 [Example 73]
A: > 7.00

Q: // lookup pIC50 for O=C1CCCN1CCCNc1nc(Nc2cccc(F)c2)ncc1C1CC1 [Example 38]
A: 6.00 to 7.00
